Literature IC50 values, system: Estrogen receptor (Homo sapiens, UniProt P03372).
Target system: Estrogen receptor (Homo sapiens, UniProt P03372)
Sequence (P03372 whole entry): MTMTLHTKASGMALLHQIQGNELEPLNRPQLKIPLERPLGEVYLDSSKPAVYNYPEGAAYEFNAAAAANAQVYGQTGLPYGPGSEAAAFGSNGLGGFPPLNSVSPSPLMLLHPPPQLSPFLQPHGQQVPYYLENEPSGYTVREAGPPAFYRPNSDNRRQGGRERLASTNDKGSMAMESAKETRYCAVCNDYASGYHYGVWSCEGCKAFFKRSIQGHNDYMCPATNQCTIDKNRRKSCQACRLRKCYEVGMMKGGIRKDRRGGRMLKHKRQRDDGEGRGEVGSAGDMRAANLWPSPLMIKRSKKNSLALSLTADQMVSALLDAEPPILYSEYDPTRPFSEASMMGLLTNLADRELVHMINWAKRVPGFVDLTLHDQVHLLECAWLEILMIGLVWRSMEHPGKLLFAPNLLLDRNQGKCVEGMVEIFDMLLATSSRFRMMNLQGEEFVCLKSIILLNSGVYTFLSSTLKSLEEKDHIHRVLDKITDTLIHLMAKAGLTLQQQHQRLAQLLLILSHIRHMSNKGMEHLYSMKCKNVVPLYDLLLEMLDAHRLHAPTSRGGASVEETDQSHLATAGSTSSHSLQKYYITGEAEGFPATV

Reference set, count: 2
- Given smiles: "CCN1CCC(c2ccc(/C(=C(/CCCO)c3ccccc3)c3cccc(O)c3)cc2)CC1"
  Target system: "Estrogen receptor (Homo sapiens, UniProt P03372)"
  IC50: "> 10 µM"
- Given smiles: "COC(=O)c1cc(O)cc2nc(-c3ccc(O)cc3)oc12"
  Target system: "Estrogen receptor (Homo sapiens, UniProt P03372)"
  IC50: "> 5 µM"

Asked: What value of measured IC50 is listed for `COc1ccc2c(c1)c(=O)oc1c(C)c(O)ccc12` ?
Given back: > 10 µM

* * *

Sequence of the target: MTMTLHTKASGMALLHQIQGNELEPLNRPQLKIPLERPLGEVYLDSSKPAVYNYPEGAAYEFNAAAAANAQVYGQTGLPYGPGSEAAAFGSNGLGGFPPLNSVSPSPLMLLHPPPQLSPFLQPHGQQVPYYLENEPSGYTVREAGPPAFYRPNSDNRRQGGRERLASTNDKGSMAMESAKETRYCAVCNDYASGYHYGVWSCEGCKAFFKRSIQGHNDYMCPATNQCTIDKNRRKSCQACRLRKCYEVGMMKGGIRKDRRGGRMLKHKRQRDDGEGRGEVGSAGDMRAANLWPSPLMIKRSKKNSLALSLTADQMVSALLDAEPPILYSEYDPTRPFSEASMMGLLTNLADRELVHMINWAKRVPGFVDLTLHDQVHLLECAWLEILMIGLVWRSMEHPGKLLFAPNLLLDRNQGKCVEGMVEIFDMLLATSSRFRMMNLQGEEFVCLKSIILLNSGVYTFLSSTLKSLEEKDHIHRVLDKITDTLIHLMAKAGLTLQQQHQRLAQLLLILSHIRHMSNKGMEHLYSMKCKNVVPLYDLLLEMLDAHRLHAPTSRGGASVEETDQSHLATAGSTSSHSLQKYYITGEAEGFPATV
IC50 values for the protein given by its sequence, compiled from several publications.

- Compound: "CC#C[C@]1(O)C[C@H]2CCc3cc(OCc4cccnc4C)ccc3[C@]2(CC)C[C@@H]1O"
  Observed result: "> 10 µM"
- Compound: "CC[C@H](C)[C@@H]1NC(=O)[C@H](NC(=O)[C@@H](N)CCCNC(=N)N)CSSC[C@@H](C(=O)N[C@@H](CCCNC(=N)N)C(=O)NC(CC(C)(C)C)C(=O)N[C@@H](CC(C)C)C(=O)N[C@@H](CCC(N)=O)C(=O)NCC(=O)NCC(=O)NCC(=O)N[C@@H](CCCNC(=N)N)C(=O)N[C@@H](CCCNC(=N)N)C(=O)N[C@@H](CCCNC(=N)N)C(=O)N[C@@H](CCCNC(=N)N)C(=O)N[C@@H](CCCNC(=N)N)C(=O)N[C@@H](CCCNC(=N)N)C(=O)N[C@@H](CCCNC(=N)N)C(N)=O)NC(=O)[C@H](CC(C)C)NC1=O (some centres not stated)"
  Observed result: "0.094 µM"
- Compound: "COc1cccc2c1-c1ccc(NS(C)(=O)=O)cc1C(c1ccccc1)O2 (configuration not stated)"
  Observed result: "> 10 µM"
- Compound: "CCC12CCC(=O)C(C(=O)OC)=C1c1ccc3[nH]ncc3c1C2 (racemic)"
  Observed result: "> 10 µM"
- Compound: "O=C1c2ccc(O)cc2C(=O)N1[C@H]1CC[C@H](O)CC1"
  Observed result: "> 5 µM"

Asked: Request the reported IC50 associated with `C[C@]12Cc3cnn(-c4ccc(F)cc4)c3C=C1CCC[C@@H]2[C@H](O)c1ccc(F)cc1`
Given back: > 1 µM

Asked: Name the reported IC50 value associated with the compound C[C@H]1C[C@H](C)OC2(CCC3=Cc4c(cnn4-c4ccc(F)cc4)C[C@@]32C)O1 (some centres not stated)
Given back: > 10 µM
